target: human ENPP1 (Homo sapiens, UniProt P22413)
Construct: made in house
Sequence (P22413 whole entry): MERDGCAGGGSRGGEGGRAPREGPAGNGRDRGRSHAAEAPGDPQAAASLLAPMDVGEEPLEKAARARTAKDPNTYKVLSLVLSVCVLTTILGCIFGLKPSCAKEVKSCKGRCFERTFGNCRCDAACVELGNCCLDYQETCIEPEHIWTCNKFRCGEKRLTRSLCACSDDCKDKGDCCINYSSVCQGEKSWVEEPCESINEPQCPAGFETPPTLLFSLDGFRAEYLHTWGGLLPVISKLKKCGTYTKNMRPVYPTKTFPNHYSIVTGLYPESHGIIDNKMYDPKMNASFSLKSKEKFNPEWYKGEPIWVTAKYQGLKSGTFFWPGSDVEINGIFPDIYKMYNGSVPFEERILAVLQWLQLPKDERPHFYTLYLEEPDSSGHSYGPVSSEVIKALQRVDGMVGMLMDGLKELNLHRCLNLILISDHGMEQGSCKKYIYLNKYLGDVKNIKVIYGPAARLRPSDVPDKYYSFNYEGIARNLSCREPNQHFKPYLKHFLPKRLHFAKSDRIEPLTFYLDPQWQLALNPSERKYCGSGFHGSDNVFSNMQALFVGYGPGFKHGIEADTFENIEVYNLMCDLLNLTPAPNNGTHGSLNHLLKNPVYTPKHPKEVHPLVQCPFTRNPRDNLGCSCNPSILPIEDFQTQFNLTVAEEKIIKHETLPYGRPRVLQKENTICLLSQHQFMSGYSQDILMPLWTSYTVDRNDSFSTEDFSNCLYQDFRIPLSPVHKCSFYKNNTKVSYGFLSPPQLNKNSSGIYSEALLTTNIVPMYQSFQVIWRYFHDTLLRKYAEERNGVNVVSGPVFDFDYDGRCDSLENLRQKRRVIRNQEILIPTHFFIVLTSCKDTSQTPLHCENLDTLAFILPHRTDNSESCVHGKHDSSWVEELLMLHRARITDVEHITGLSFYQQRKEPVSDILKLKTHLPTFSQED
measurement_protocol: ENPP1 assay with ATP substrate (Transcreener AMP2/GMP2 TR-FRET)
Format: biochemical
run_conditions: 1 hour at room temperature
Provide the reported IC50 of each item.

COc1cc(CNc2nc(-c3ccccn3)nc3scc(-c4ccccc4)c23)ccc1S(N)(=O)=O | 0.1 to 1 µM
NS(=O)(=O)c1ccc(CNc2nc(-c3ccccn3)nc3scc(-c4cccnc4)c23)cc1 | < 0.1 µM
Fc1cccc(CNc2nc(-c3ccccn3)nc3scc(-c4ccccc4)c23)c1 | > 20 µM

List the reported IC50 of each molecule below.
1. NS(=O)(=O)c1ccc(CNc2nc(N3CCCCC3)nc3scc(-c4ccccc4)c23)cc1
2. CNc1cc(NCc2ccc(S(N)(=O)=O)cc2)c2cnn(C)c2n1

Reply:
1. 0.1 to 1 µM
2. 1 to 20 µM
